molecular target: DRB1*1302; experiment: binding to purified HLA
# reported pIC50; entries follow
Just the number, please; pIC50 means minus log10 of the concentration in mol/L.

These recorded examples may help you get a feel for the data.
[[record]]
binder = "AAAEFVAAYTLHAAA [E4.Y9.H12]"
observed_property = "pIC50"
reported = 5.84

[[record]]
binder = "AAAHFVAAFTLKAEA [H4.F9.E14]"
observed_property = "pIC50"
reported = 6.10


Request: Output measured pIC50 for this item: AAAHFVAANTLHAAA [H4.N9.H12]
Result: 7.33

Request: Please list pIC50 recorded for the binder AAAEFVAAWTLHAAA [E4.H12]
Result: 5.94

Request: Answer with the recorded pIC50 for the binder listed here: AAANFVAAYTLHAAA [N4.Y9.H12]
Result: 5.85
